Recorded values, source patent US20200017496A1.

Test system: Klebsiella pneumoniae (KPN) isolates
Experiment: MIC of compounds alone and combined with antibacterials, broth microdilution (CLSI)
Assay type: cell-based
Conditions: KPN UFR79; AF1 @ 4 μg/mL
# MIC ATB in combination listing for each entry below
Reply numerically in µg/mL, unit not repeated.

- Smiles: "C=CC1=C(C(=O)O)N2C(=O)[C@@H](NC(=O)/C(=N\\O)c3csc(N)n3)[C@H]2SC1"
  Measure Unit: "µg/mL"
  MIC ATB in combination: 16
- Smiles: "CC(C)(O/N=C(\\C(=O)N[C@@H]1C(=O)N2C(C(=O)[O-])=C(C[n+]3ccccc3)CS[C@H]12)c1csc(N)n1)C(=O)O"
  Measure Unit: "µg/mL"
  MIC ATB in combination: 2
- Smiles: "C=CC1=C(C(=O)O)N2C(=O)[C@@H](NC(=O)/C(=N\\OCC(=O)O)c3csc(N)n3)[C@H]2SC1"
  Measure Unit: "µg/mL"
  MIC ATB in combination: 16
- Smiles: "CO/N=C(\\C(=O)N[C@@H]1C(=O)N2C(C(=O)O)=C(COC(N)=O)CS[C@H]12)c1ccco1"
  Measure Unit: "µg/mL"
  MIC ATB in combination: 32

Item COCC1=C(C(=O)O)N2C(=O)[C@@H](NC(=O)/C(=N\OC)c3csc(N)n3)[C@H]2SC1 : provide MIC ATB in combination
4

---

Biological target: OXA-11 (Pseudomonas aeruginosa, UniProt Q06778)
Sequence (Q06778 21-266): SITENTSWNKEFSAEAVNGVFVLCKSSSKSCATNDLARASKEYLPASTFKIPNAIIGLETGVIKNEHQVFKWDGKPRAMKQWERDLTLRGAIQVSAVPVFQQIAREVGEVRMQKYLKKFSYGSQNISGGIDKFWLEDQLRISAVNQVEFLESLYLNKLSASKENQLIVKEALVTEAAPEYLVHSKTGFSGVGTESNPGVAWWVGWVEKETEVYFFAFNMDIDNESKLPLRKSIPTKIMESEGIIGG
Assay: β-lactamase inhibitory activity, IC50 (nitrocefin hydrolysis)
Measured Attribute: pIC50
Reminder that pIC50 means the negative base-10 logarithm of the concentration expressed in mol/L.

- Molecule: "NC(=O)[C@@H]1CC[C@@H]2CN1C(=O)N2OC(F)(F)C(=O)[O-].[Na+] [AF1]"
  pIC50: 6.00

Moving on to another molecule below.
Identify measured pIC50 associated with N#C[C@@H]1CC[C@@H]2CN1C(=O)N2OC(F)(F)C(=O)[O-].[Na+] [AF2]
7.89

---

Tested on: Escherichia coli (ECO) isolates
Assay: MIC of compounds alone and combined with antibacterials, broth microdilution (CLSI)
Assay type: cell-based
Settings: ECO 200344; AF1 @ 4 μg/mL
Measured Attribute: MIC ATB in combination

- Smiles: "COCC1=C(C(=O)O)N2C(=O)[C@@H](NC(=O)/C(=N\\OC)c3csc(N)n3)[C@H]2SC1"
  Tested System: "Escherichia coli (ECO) isolates"
  Experimental Result: "<=0.25 μg/mL"
- Smiles: "CC(C)(O/N=C(\\C(=O)N[C@@H]1C(=O)N2C(C(=O)[O-])=C(C[n+]3ccccc3)CS[C@H]12)c1csc(N)n1)C(=O)O"
  Tested System: "Escherichia coli (ECO) isolates"
  Experimental Result: "<=0.25 μg/mL"
- Smiles: "C=CC1=C(C(=O)O)N2C(=O)[C@@H](NC(=O)/C(=N\\O)c3csc(N)n3)[C@H]2SC1"
  Tested System: "Escherichia coli (ECO) isolates"
  Experimental Result: "<=0.25 μg/mL"
- Smiles: "CO/N=C(\\C(=O)N[C@@H]1C(=O)N2C(C(=O)O)=C(COC(N)=O)CS[C@H]12)c1ccco1"
  Tested System: "Escherichia coli (ECO) isolates"
  Experimental Result: "4 µg/mL"

Now for a further compound.
Note MIC ATB in combination for the compound shown: C=CC1=C(C(=O)O)N2C(=O)[C@@H](NC(=O)/C(=N\OCC(=O)O)c3csc(N)n3)[C@H]2SC1
<=0.25 μg/mL

---

Experiment: Hydrolysis kinetics in buffers at room temperature by 19F-NMR, 1 mg/ml (Method 9)
Type: physicochemical
Details: Phosphate 10 mM pH 7.4
Hydrolysis at 1 mg/ml at room Temperature (NMR) T50 (50% degradation time) of 1 h or higher: Criterion met. Under 1 h: Criterion not met.

- Smiles: "COCC1(OC(=O)C(F)(F)ON2C(=O)N3C[C@H]2CC[C@H]3C(N)=O)CCOCC1"
  Group: "Criterion met"
- Smiles: "CC1(OC(=O)C(F)(F)ON2C(=O)N3C[C@H]2CC[C@H]3C(N)=O)CCOCC1"
  Group: "Criterion met"
- Smiles: "COCC(C)(C)OC(=O)C(F)(F)ON1C(=O)N2C[C@H]1CC[C@H]2C(N)=O"
  Group: "Criterion met"
- Smiles: "COCCOCC(C)(C)OC(=O)C(F)(F)ON1C(=O)N2C[C@H]1CC[C@H]2C(N)=O"
  Group: "Criterion met"

# next compound below
Can COCCCC(C)(C)OC(=O)C(F)(F)ON1C(=O)N2C[C@H]1CC[C@H]2C(N)=O be said to have Hydrolysis at 1 mg/ml at room Temperature (NMR) T50 (50% degradation time) at or above 1 h?
Criterion not met

---

System: Escherichia coli (ECO) isolates
Assay: MIC of compounds alone and combined with antibacterials, broth microdilution (CLSI)
Format: cell-based
Conditions: ECO UFR18; AF1 @ 4 μg/mL
// boundary case: MIC ATB in combination equal to 20 µg/mL maps to Not fulfilled; strictly smaller maps to Fulfilled

In the record for CC1(C)S[C@@H]2[C@H](NC(=O)[C@H](N)c3ccc(O)cc3)C(=O)N2[C@H]1C(=O)O [AMX, Amoxicillin] , is MIC ATB in combination less than 20 µg/mL?
Not fulfilled

---

Molecular target: SHV-12 (Klebsiella pneumoniae, UniProt P0AD64, E235K/G234S/L31Q)
Sequence (P0AD64 22-286 L31Q/G234S/E235K): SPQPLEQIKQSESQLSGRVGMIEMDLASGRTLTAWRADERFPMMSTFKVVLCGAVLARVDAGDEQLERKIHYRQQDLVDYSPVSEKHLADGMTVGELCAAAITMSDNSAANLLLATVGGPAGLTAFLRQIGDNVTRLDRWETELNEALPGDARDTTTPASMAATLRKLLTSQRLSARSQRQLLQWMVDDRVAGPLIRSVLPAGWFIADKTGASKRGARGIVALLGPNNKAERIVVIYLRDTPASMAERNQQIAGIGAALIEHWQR
Experiment: β-lactamase inhibitory activity, IC50 (nitrocefin hydrolysis)
Measured Attribute: IC50 (nM)
Just the number please, in nM, no unit attached.

- Smiles: "N#C[C@@H]1CC[C@@H]2CN1C(=O)N2OC(F)(F)C(=O)[O-].[Na+]"
  Measure Unit: "nM"
  IC50: 1.1

Shifting focus to the molecule that follows.
Quickly give me recorded IC50 for NC(=O)[C@@H]1CC[C@@H]2CN1C(=O)N2OC(F)(F)C(=O)[O-].[Na+]
1.1

---

Biological target: TEM-1 (Escherichia coli)
Construct: made in house; host or cells: E. coli
Sequence (P62593 24-286 limits assumed): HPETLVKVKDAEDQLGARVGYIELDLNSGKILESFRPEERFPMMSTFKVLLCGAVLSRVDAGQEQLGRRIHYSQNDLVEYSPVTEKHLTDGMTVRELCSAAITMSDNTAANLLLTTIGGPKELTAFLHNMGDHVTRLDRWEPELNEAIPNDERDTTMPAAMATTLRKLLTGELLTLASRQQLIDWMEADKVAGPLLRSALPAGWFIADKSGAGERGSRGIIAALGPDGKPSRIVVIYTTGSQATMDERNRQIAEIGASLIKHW
Assay: β-lactamase inhibitory activity, IC50 (nitrocefin hydrolysis)
Format: biochemical
Conditions: TEM-1; 30 min pre-incubation, nitrocefin 100 μM; read-out: IC50
Measured Attribute: pIC50
Note on pIC50: it is the negative log10 of concentration, concentration in mol/L.

Provide only the value of recorded pIC50 for NC(=O)[C@@H]1CC[C@@H]2CN1C(=O)N2OC(F)(F)C(=O)[O-].[Na+]
9.66

---

Target: SAU PC1 (Staphylococcus aureus)
Sequence (P00807 25-281): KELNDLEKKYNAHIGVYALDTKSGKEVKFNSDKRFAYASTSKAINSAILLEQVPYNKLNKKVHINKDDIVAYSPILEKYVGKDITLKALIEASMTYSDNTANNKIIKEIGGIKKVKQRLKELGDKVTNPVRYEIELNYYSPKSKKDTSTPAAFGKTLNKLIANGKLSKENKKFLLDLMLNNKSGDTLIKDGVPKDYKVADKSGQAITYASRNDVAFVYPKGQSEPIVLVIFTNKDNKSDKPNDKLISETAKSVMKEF
Measured pIC50 of individual entries
pIC50 here is simply -log10 of the concentration when that concentration is written in mol/L.

- Smiles: "NC(=O)[C@@H]1CC[C@@H]2CN1C(=O)N2OC(F)(F)C(=O)[O-].[Na+]"
  Experimental Result: 7.15

Next item in the queue.
Recall and state the measured pIC50 for N#C[C@@H]1CC[C@@H]2CN1C(=O)N2OC(F)(F)C(=O)[O-].[Na+] .
8.51

---

MIC ATB in combination for assorted compounds
Tested on: Klebsiella pneumoniae (KPN) isolates
Test: MIC of compounds alone and combined with antibacterials, broth microdilution (CLSI)
Type: cell-based
Conditions: KPN UFR221; AF1 @ 4 μg/mL
Method: Method 2: MIC of Compounds Alone and Combined with Antibacterials Against Bacterial Isolates. Compounds of the present invention were assessed against genotyped bacterial strains (Table 3, 4) alone or in combination with an antibacterial (Table 2). […] The MIC of the compounds was defined as the lowest concentration of said compounds that prevented bacterial growth as read by visual inspection. […]
Give the quantity in µg/mL, number only.

- Compound: "CC(C)(O/N=C(\\C(=O)N[C@@H]1C(=O)N2C(C(=O)[O-])=C(C[n+]3ccccc3)CS[C@H]12)c1csc(N)n1)C(=O)O [CAZ, Ceftazidime]"
  MIC ATB in combination (µg/mL): 0.5
- Compound: "C=CC1=C(C(=O)O)N2C(=O)[C@@H](NC(=O)/C(=N\\OCC(=O)O)c3csc(N)n3)[C@H]2SC1 [FIX, Cefixime]"
  MIC ATB in combination (µg/mL): 2
- Compound: "CC1(C)S[C@@H]2[C@H](NC(=O)[C@H](N)c3ccc(O)cc3)C(=O)N2[C@H]1C(=O)O [AMX, Amoxicillin]"
  MIC ATB in combination (µg/mL): 256

Give the reported MIC ATB in combination for this compound. CO/N=C(\C(=O)N[C@@H]1C(=O)N2C(C(=O)O)=C(COC(N)=O)CS[C@H]12)c1ccco1 [FUR, Cefuroxime]
4

Answer with reported MIC ATB in combination of COCC1=C(C(=O)O)N2C(=O)[C@@H](NC(=O)/C(=N\OC)c3csc(N)n3)[C@H]2SC1 [POD, Cefpodoxime]
1

Check the records and state MIC ATB in combination for C=CC1=C(C(=O)O)N2C(=O)[C@@H](NC(=O)/C(=N\O)c3csc(N)n3)[C@H]2SC1 [CDR, Cefdinir]
2
